Origin of values: patent US20200079833A1

Biological target: GLP-1 receptor (GLP-1R), primary cAMP assay cell line (human, UniProt P43220 24-463)
Assay: cell-based or functional assay
Starred links: 1 amine or outer side, 2 acyl side, 3 side chain; linkers in the order of their positions; H or OH if unused. Non-standard residues stand in square brackets, D forms with d. Groups on a side chain read outwards from the residue. Primed or numbered codes have the meaning given here. No end group written: not given here. *: point of attachment. γGlu = O=C(O)[C@H](CCC(=O)[*:2])N[*:1]; αMeF = C[C@](N)(Cc1ccccc1)C(=O)O; αMeK = C[C@](N)(CCCCN)C(=O)O; Lauroyl = CCCCCCCCCCCC(=O)*; αMeS = C[C@](N)(CO)C(=O)O; PEG2′ = not defined here; Aib = CC(C)(N)C(=O)O
Record form. Attribute: cAMP Primary assay EC50, n1. Fill in for each entry.

Record request: cAMP Primary assay EC50, n1 value, item H[Aib]EGS[αMeF]TSDV[αMeS]SYK([PEG2′-PEG2′-γGlu-Lauroyl])EK([PEG2′-PEG2′-γGlu-Lauroyl])EAA[αMeK]EFIAFK([PEG2′-PEG2′-γGlu-Lauroyl])VEGG-NH2 [SEQ ID NO: 483] 0.229 nM

Record request: cAMP Primary assay EC50, n1 value, item H[Aib]EGS[αMeF]TSDK([PEG2′-PEG2′-γGlu-Lauroyl])SSYLEGK([PEG2′-PEG2′-γGlu-Lauroyl])AA[αMeK]EFIAFK([PEG2′-PEG2′-γGlu-Lauroyl])VEGG-NH2 [SEQ ID NO: 472] 0.297 nM

Record request: cAMP Primary assay EC50, n1 value, item H[Aib]EGS[αMeF]TSDVSK([PEG2′-PEG2′-γGlu-Lauroyl])YLEGK([PEG2′-PEG2′-γGlu-Lauroyl])AA[αMeK]EFIAFK([PEG2′-PEG2′-γGlu-Lauroyl])VEGG-NH2 [SEQ ID NO: 476] 0.174 nM

Record request: cAMP Primary assay EC50, n1 value, item H[Aib]EGS[αMeF]TSDK([PEG2′-PEG2′-γGlu-Lauroyl])SSYLEGK([PEG2′-PEG2′-γGlu-Lauroyl])AA[αMeK]EFIAK([PEG2′-PEG2′-γGlu-Lauroyl])VVEGG-NH2 [SEQ ID NO: 456] 0.116 nM

Record request: cAMP Primary assay EC50, n1 value, item H[Aib]EGS[αMeF]TSDVSK([PEG2′-PEG2′-γGlu-Lauroyl])YLEGEAA[αMeK]K([PEG2′-PEG2′-γGlu-Lauroyl])FIAFK([PEG2′-PEG2′-γGlu-Lauroyl])VEGG-NH2 [SEQ ID NO: 478] 0.103 nM

Record request: cAMP Primary assay EC50, n1 value, item H[Aib]EGS[αMeF]TSDK([PEG2′-PEG2′-γGlu-Lauroyl])SSYLEGEK([PEG2′-PEG2′-γGlu-Lauroyl])A[αMeK]EFIAK([PEG2′-PEG2′-γGlu-Lauroyl])VVEGG-NH2 [SEQ ID NO: 457] 0.127 nM

Record request: cAMP Primary assay EC50, n1 value, item H[Aib]EGS[αMeF]TSDV[αMeS]SK([PEG2′-PEG2′-γGlu-Lauroyl])LEGEAA[αMeK]K([PEG2′-PEG2′-γGlu-Lauroyl])FIK([PEG2′-PEG2′-γGlu-Lauroyl])FVVEGG-NH2 [SEQ ID NO: 450] 0.028 nM

Record request: cAMP Primary assay EC50, n1 value, item H[Aib]EGS[αMeF]TSDV[αMeS]SK([PEG2′-PEG2′-γGlu-Lauroyl])LEGK([PEG2′-PEG2′-γGlu-Lauroyl])AA[αMeK]EFIK([PEG2′-PEG2′-γGlu-Lauroyl])FVVEGG-NH2 [SEQ ID NO: 448] 0.0788 nM

Record request: cAMP Primary assay EC50, n1 value, item H[Aib]EGS[αMeF]TSDK([PEG2′-PEG2′-γGlu-Lauroyl])SSYLEGK([PEG2′-PEG2′-γGlu-Lauroyl])AA[αMeK]EFIK([PEG2′-PEG2′-γGlu-Lauroyl])FVVEGG-NH2 [SEQ ID NO: 440] 0.0967 nM

Record request: cAMP Primary assay EC50, n1 value, item H[Aib]EGS[αMeF]TSDV[αMeS]SYK([PEG2′-PEG2′-γGlu-Lauroyl])EGEAA[αMeK]K([PEG2′-PEG2′-γGlu-Lauroyl])FIAFK([PEG2′-PEG2′-γGlu-Lauroyl])VEGG-NH2 [SEQ ID NO: 486] 0.165 nM

Record request: cAMP Primary assay EC50, n1 value, item H[Aib]EGS[αMeF]TSDV[αMeS]SK([PEG2′-PEG2′-γGlu-Lauroyl])LEGEK([PEG2′-PEG2′-γGlu-Lauroyl])A[αMeK]EFIAFK([PEG2′-PEG2′-γGlu-Lauroyl])VEGG-NH2 [SEQ ID NO: 481] 0.137 nM

Record request: cAMP Primary assay EC50, n1 value, item H[Aib]EGS[αMeF]TSDVSK([PEG2′-PEG2′-γGlu-Lauroyl])YLEGK([PEG2′-PEG2′-γGlu-Lauroyl])AA[αMeK]EFIK([PEG2′-PEG2′-γGlu-Lauroyl])FVVEGG-NH2 [SEQ ID NO: 444] 0.125 nM

Record request: cAMP Primary assay EC50, n1 value, item H[Aib]EGS[αMeF]TSDVSK([PEG2′-PEG2′-γGlu-Lauroyl])YLEGEK([PEG2′-PEG2′-γGlu-Lauroyl])A[αMeK]EFIAK([PEG2′-PEG2′-γGlu-Lauroyl])VVEGG-NH2 [SEQ ID NO: 461] 0.0745 nM

Record request: cAMP Primary assay EC50, n1 value, item H[Aib]EGS[αMeF]TSDV[αMeS]SK([PEG2′-PEG2′-γGlu-Lauroyl])LEGEAA[αMeK]K([PEG2′-PEG2′-γGlu-Lauroyl])FIAK([PEG2′-PEG2′-γGlu-Lauroyl])VVEGG-NH2 [SEQ ID NO: 466] 0.0172 nM
